- Tested on: TK-10 renal
- TEST_DESCRIPTION: NCI-60 one-dose screen, 48 h
- CONDITIONS_USED: 10 µM unless noted
This is part of a sample that, as a whole, favours compounds with a hit. Of some 83,000 tested, about 20% had one in any assay. Calls of active or inactive are those of the source. The calls were made as follows: active = growth percent below 10; inactive = the rest.
API: response.call in Yes (active), No (inactive)

Examples with answers:
COMPOUND | CATEGORY
CCCCOC(=O)c1ccc(NC(=O)C(C)N2CCOCC2)cc1 (stereo not given) | No
Nc1nc(I)c2ncn(C3OC(CO)C(O)C3O)c2n1 (stereo not given) | No
COc1cc2c(O)n(CCCn3ccnc3)c3c4cnc5cccc(c(=O)c3c2cc1OC)c54 | No
Cc1cc(-c2ccccc2)cc(SC#N)[n+]1[O-] | No
Cn1ccnc1C(=O)/C=C/c1ccc(C(=O)Nc2ccc(S(F)(F)(F)(F)F)cc2)cc1 | No
Cc1cc(-c2ccc(N(C)C)cc2)c2sc(=O)[nH]c2n1 | No

Input: How was `C=C1C(=O)O[C@H]2[C@H]1CC/C(Cn1cc(CNCCc3c[nH]c4ccccc34)nn1)=C\CC[C@@]1(C)O[C@@H]21` classified in this test?
Output: No

Input: Let us now turn to `O=C1/C(=C/c2ccccc2[N+](=O)[O-])COc2ccc(O)c(O)c21`
Output: Yes

Input: Let us now turn to `Cc1ccc(S(=O)(=O)Nc2sccc2-c2nc(-c3ccccc3)no2)cc1`
Output: No

Input: Let us now turn to `C[C@]12CCC(=O)C[C@H]1CC[C@@H]1[C@@H]2CC[C@@]2(C)[C@H]1CC[C@]2(O)C(=O)CO`
Output: No

Input: Let us now turn to `CN1CCN(C(=O)[C@@]2(C)CC[C@]3(C)CC[C@]4(C)C(=CC[C@@H]5[C@@]6(C)C/C(=C/c7ccncc7)C(=O)C(C)(C)[C@@H]6CC[C@]54C)[C@@H]3C2)CC1`
Output: No

Input: Let us now turn to `N=C(N)c1ccc(-c2ccc(/C=C/c3ccccc3)s2)cc1`
Output: No

Input: Let us now turn to `C=CCOc1cccc(/C=C2\SC(=Nc3ccc(O)cc3)NC2=O)c1`
Output: No

Input: Let us now turn to `CC(C)(C)c1ccc(C(=O)Nc2sc3c(c2C(N)=O)CCC(=O)C3)cc1`
Output: Yes
